Value source: patent US20210323913A1

List of pKi values.
- experimental system: UniProt P08913
- Sequence (P08913 whole entry): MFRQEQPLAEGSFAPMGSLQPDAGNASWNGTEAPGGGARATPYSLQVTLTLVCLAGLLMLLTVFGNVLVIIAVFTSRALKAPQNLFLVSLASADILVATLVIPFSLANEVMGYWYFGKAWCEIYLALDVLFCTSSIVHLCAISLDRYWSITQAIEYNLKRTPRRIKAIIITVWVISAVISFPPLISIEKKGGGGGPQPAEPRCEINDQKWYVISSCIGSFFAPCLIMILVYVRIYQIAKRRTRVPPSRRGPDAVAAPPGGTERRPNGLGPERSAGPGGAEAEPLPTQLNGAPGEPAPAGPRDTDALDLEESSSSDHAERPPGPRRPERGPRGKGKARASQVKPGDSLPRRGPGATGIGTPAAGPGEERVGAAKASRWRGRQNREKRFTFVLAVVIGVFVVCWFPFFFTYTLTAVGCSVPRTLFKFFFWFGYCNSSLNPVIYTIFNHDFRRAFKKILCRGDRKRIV
- assay details: Radioligand competition binding, Alpha2A
- measurement parameters: Table 5; Cheng-Prusoff from best fit IC50
# pKi is unitless: minus log10 of the molar concentration; print number only

compound	pKi
CN(C(=O)OCc1ccccc1)C1CCCc2ccc(N3CCN(C4CCCC4)CC3)cc21 (centres unmarked)	5.95

// switching to the query compound
Input line: Item: CCCN1CCN(c2ccc3c(c2)C(N(CCC)C(=O)OCc2ccccc2)CCC3)CC1 (centres unmarked) Test system: UniProt P08913 Read-out: pKi Value: ?
Output line: 6.01

* * *

- experimental system: 5-HT6 (Homo sapiens, UniProt P50406)
- Sequence (P50406 whole entry, species assumed): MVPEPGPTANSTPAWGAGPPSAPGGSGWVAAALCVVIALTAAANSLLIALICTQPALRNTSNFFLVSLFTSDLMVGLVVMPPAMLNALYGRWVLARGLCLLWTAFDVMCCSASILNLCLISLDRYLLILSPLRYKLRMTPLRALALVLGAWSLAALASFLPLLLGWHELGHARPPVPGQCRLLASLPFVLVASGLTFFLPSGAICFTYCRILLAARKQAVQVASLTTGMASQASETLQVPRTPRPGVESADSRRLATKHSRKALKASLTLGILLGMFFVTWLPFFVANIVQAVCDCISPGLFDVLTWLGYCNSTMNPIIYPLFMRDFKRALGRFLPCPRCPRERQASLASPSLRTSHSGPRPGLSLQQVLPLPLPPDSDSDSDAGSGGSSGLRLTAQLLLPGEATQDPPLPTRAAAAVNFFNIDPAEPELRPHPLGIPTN
The label TRUE is reserved for Ki strictly under 1000 nM; FALSE covers values equal to or above it.

Recorded results for 2 compounds are shown here.
compound	label
CCN(CC)C(=O)CCN1CCN(c2ccc3c(c2)C(N(C)C(=O)OCc2ccccc2)CCC3)CC1 (stereo not drawn)	TRUE
CCCN1CCN(c2ccc3c(c2)C(N(CCC)C(=O)OCc2ccccc2)CCC3)CC1 (stereo not drawn)	FALSE

Input line: # check: Ki < 1000 nM for CCCN1CCN(c2ccc3c(c2)C(N(C)C(=O)OCc2ccccc2)CCC3)CC1 (stereo not drawn)
Output line: TRUE

Input line: # check: Ki < 1000 nM for CCCN(C(=O)OCc1ccccc1)C1CCCc2ccc(N3CCN(CCC(=O)OCC)CC3)cc21 (stereo not drawn)
Output line: FALSE

Input line: # check: Ki < 1000 nM for CN(C(=O)OCc1ccccc1)C1CCCc2ccc(N3CCN(CCCO)CC3)cc21 (stereo not drawn)
Output line: FALSE

* * *

List of log10 of Ki values.
- experimental system: UniProtKB Q5BJF2
- Sequence (Q5BJF2 whole entry, species assumed): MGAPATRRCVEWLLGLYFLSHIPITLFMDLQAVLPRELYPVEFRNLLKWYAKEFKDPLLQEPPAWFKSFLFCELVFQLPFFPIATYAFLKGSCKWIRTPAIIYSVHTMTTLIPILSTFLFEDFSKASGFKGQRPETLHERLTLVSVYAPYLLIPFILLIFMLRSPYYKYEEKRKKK
- assay details: Sigma 2 receptor radioligand competition binding
- measurement parameters: Table 1, 7-piperazinyl-tetrahydronaphthalene analogs; read-out: Ki (nM) Sig2R
Each number you see is log10 of Ki, and the unit inside the log is nM.

Completed entries (count: 8):
molecule	obs value
CCOC(=O)CCN1CCN(c2ccc3c(c2)C(NC(=O)OCc2ccccc2)CCC3)CC1 (stereo not drawn) [MDW-1-206]	1.90
CCCN1CCN(c2ccc3c(c2)C(N(CC)C(=O)OCc2ccccc2)CCC3)CC1 (stereo not drawn) [MDW-1-195]	0.70
CCOC(=O)CCN1CCN(c2ccc3c(c2)C(N(CC)C(=O)OCc2ccccc2)CCC3)CC1 (stereo not drawn) [MDW-1-190]	1.30
CC(C)N1CCN(c2ccc3c(c2)C(N(C)C(=O)OCc2ccccc2)CCC3)CC1 (stereo not drawn) [MDW-1-167]	0.90
CCN1CCN(c2ccc3c(c2)C(N(C)C(=O)OCc2ccccc2)CCC3)CC1 (stereo not drawn) [MDW-1-161]	1.54
CCCN1CCN(c2ccc3c(c2)C(N(C)C(=O)OCc2ccccc2)CCC3)CC1 (stereo not drawn) [MDW-2-76]	0.78
CCCN1CCN(c2ccc3c(c2)C(NC(=O)OCc2ccccc2)CCC3)CC1 (stereo not drawn) [MDW-1-202]	1.75
CCCN1CCN(c2ccc3c(c2)C(OC(=O)CCc2ccccc2)CCC3)CC1 (stereo not drawn) [MDW-1-290]	1.40

Input line: // returns reported log10 of Ki for input CCOC(=O)CN1CCN(c2ccc3c(c2)C(N(C)C(=O)OCc2ccccc2)CCC3)CC1 (stereo not drawn) [MDW-1-169]
Output line: 2.95

Input line: // returns reported log10 of Ki for input CN(C(=O)OCc1ccccc1)C1CCCc2ccc(N3CCN(C4CCC4)CC3)cc21 (stereo not drawn) [MDW-1-162]
Output line: 1.08

Input line: // returns reported log10 of Ki for input COC(=O)CCN1CCN(c2ccc3c(c2)C(N(C)C(=O)OCc2ccccc2)CCC3)CC1 (stereo not drawn) [MDW-1-166]
Output line: 1.63
